Values from the supplement of paper PMC13380429

Test system: U2OS
PROTOCOL TEXT: cell viability relative to DMSO; higher = less toxic
TEST CONTEXT: 72 h; 100 nM
ENDPOINT LABEL: cell viability (%)
Report the value in % with no unit label.

# value of cell viability, U2OS, item CC1(COc2ccc(CC3SC(=O)NC3=O)cc2)CCCCC1 (configuration not stated) [ciglitazone] = 102

The compound O=C(NC1CCNCC1)c1n[nH]cc1NC(=O)c1c(Cl)cccc1Cl [AT-7519] , tested on U2OS, showed cell viability of 100

GET /values?item= Cc1ccccc1NC(=O)Nc1ccc(CC(=O)N(C)[C@@H](CC(C)C)C(=O)NCC[C@H](NC(=O)[C@@H]2CCCN2S(=O)(=O)c2cc(Cl)cc(Cl)c2)C(=O)O)cc1 [BIO-5192] &system= U2OS returns cell viability: 95.1

Record `CC[C@H](C)n1cc(C)c2c(C(=O)NCc3c(C)cc(C)[nH]c3=O)cc(-c3ccc(N4CCNCC4)nc3)cc21` ; system U2OS; cell viability = 98.8

Considering COc1ccc(NS(=O)(=O)c2ccc(/N=N/c3ccc(O)c(C(=O)O)c3)cc2)nn1 [salazodine] , its cell viability with U2OS was recorded as 98.6

# value of cell viability, U2OS, item CC1(C)C(=O)NC2=C1C(=O)C(=O)c1ccccc12 [BVT-948] = 95.8

For the compound CCC[C@H](NC(=O)/C(C#N)=C/c1cccc(Br)n1)c1ccccc1 [WP1130] , the measured cell viability on U2OS was 97.5

Record N=C(N)NN=C1C=CC(=NNC(N)=S)C=C1 [ambazone] has U2OS cell viability equal to 97.9

For the compound OCc1cc([C@@H](O)CNCCCCCCOCCOCc2c(Cl)cccc2Cl)ccc1O [vilanterol] , the measured cell viability on U2OS was 101

Observed cell viability on U2OS, entry CC(C)(COP(=O)(O)OP(=O)(O)OC[C@H]1O[C@@H](n2cnc3c(N)ncnc32)[C@H](O)[C@@H]1OP(=O)(O)O)[C@@H](O)C(=O)NCCC(=O)NCCS [coenzyme-A] , equals 103

The compound Cc1c(F)cc(C(=O)NC2CC2)cc1-c1ccc(C(=O)NCC(C)(C)C)cn1 [losmapimod] , when measured on U2OS, yielded cell viability of 97.2

Known value: U2OS cell viability of the compound CC/C(=C(\c1ccccc1)c1ccc(OCCN(C)C)cc1)c1ccccc1 [tamoxifen] equals 93

Entry CN1CCC(=C2c3ccccc3Sc3ccccc32)CC1 [pimethixene] ; assay system U2OS; cell viability recorded at 102

Log: U2OS, compound N#Cc1cc2nc(O)c(O)nc2cc1[N+](=O)[O-] [CNQX] , cell viability = 97.9

The compound c1ccc2c(CC3=NCCN3)cccc2c1 [naphazoline] on U2OS: cell viability was 94.9

Bench note, U2OS: entry COc1cc(/C=C/C(N)=O)cc(OC)c1OC [cintriamide] , its cell viability = 101

Form field, cell viability with U2OS, item CC(=O)OCC(=O)[C@@]12OC(C)(C)O[C@@H]1C[C@H]1[C@@H]3C[C@H](F)C4=CC(=O)C=C[C@]4(C)[C@@]3(F)[C@@H](O)C[C@@]12C [fluocinonide] : 95.2

---

Answer each item with its documented cell viability.
Test system: Calu-3
PROTOCOL TEXT: cell viability relative to DMSO; higher = less toxic
TEST CONTEXT: 72 h; 10000 nM
API: value field is a number in %; no unit string.

Form field, cell viability with Calu-3, item `Cc1cc(C)nc(SCC(=O)Nc2ncc(Cc3cccc4ccccc34)s2)n1` : 102

Entry COc1cc(C(=O)N(CC[C@H]2CCCN2C)C/C(C)=C/c2ccccc2F)cc(OC)c1OC (racemic) , Calu-3 data, cell viability value: 94.4

Calu-3 cell viability of `Cc1cc(N2CCCCC2)nc2ccccc12` is 110

Hey, Calu-3 data for `Cc1nnc2n1-c1sc(CCC(=O)N3CCOCC3)cc1C(c1ccccc1Cl)=NC2` : cell viability came out at 87.1

For `Nc1ncnc2c1ncn2[C@@H]1O[C@H](C[C@@H](N)CC[C@H](N)C(=O)O)[C@@H](O)[C@H]1O` on Calu-3, measured cell viability was 93.5

Bench note, Calu-3: entry `N[C@H](C(=O)O)[C@H](O)c1ccc(O)c(O)c1` , its cell viability = 102

Sample `COc1c(C)c(C(=O)c2ccc(N)c(C(=O)O)c2)n2ccccc12` , system: Calu-3. Its cell viability is 103

# lookup: O=C(O)C1=C(CSc2nnnn2CS(=O)(=O)O)CS[C@@H]2[C@H](NC(=O)[C@H](O)c3ccccc3)C(=O)N12 [Cefonicid (sodium)] on Calu-3, cell viability = 95.8

C[C@@H]1O[C@@H](O[C@H]2[C@H](Oc3cc(O)c(C(=O)CCc4ccc(O)cc4)c(O)c3)O[C@H](CO)[C@@H](O)[C@@H]2O)[C@H](O)[C@H](O)[C@H]1O [naringin-dihydrochalcone] on Calu-3 gives cell viability = 105

Bench note, Calu-3: entry `Cc1c(F)cc(C(=O)NC2CC2)cc1-c1c(F)cn2c(C(C)(C)C)nnc2c1F` , its cell viability = 102

Field cell viability (Calu-3), entry `O=C(N/N=C/c1ccccc1O)c1ccccc1O` : 11.9

I looked up COc1cc(/C=C/C(N)=O)cc(OC)c1OC [cintriamide] and its cell viability for Calu-3 was 105

Item `Cc1cnc(NC(=O)Nc2cc(Br)c(C)cc2OC[C@@H]2CNCCO2)cn1` ; assay system Calu-3; cell viability reported as 63

Let me check: CC(O)CN1CCN(CC(=O)[O-])CCN(CC(=O)[O-])CCN(CC(=O)[O-])CC1.[Gd+3] (configuration not stated) , system Calu-3, measured cell viability is 96.1

The measured cell viability that `COc1ccc(CCO[C@@H]2CCCC[C@H]2N2CC[C@@H](O)C2)cc1OC` showed for Calu-3 is 109

Record `Cc1cc(Nc2ncc(Cl)c(Nc3ccccc3S(=O)(=O)C(C)C)n2)c(OC(C)C)cc1C1CCNCC1` ; system Calu-3; cell viability = 0.5

Known value: Calu-3 cell viability of the compound `CCc1cnn2c(NCc3ccc[n+]([O-])c3)cc(N3CCCC[C@H]3CCO)nc12` equals 39.6
